Where these numbers come from: patent US20260055083A1

- Target entity: APOL1 G2 (Homo sapiens, UniProt O14791, DEL388-389)
- Construct: expressed in transfected cells; host or cells: HEK293/T-REx APOL1 G2 clone #2, doxycycline-inducible
- Procedure text: APOL1 G2 FLIPR calcium influx assay (HEK T-REx/GCaMP6f/APOL1 G2 K6.3 cells)
- Assay type: cell-based
- Test conditions: HEK293 clone expressing GCaMP6f, doxycycline-induced APOL1 G2; prevention of calcium influx; geometric mean of at least 2 assay runs
Readout kind: AC50 (nM)

>>> reported_measurement("C[C@@H]1CN(CCc2cccc(C#N)c2)C[C@H]1COc1ccc(S(C)(=O)=NCCS(C)(=O)=O)cc1 (single isomer, unassigned) [Compound 69]")
346
>>> reported_measurement("CS(=O)(=O)c1ccc(OC[C@@H]2CN(CCc3cccc(C#N)c3)C[C@H]2CO)cc1 [Compound 25]")
343
>>> reported_measurement("C[C@@H]1C[C@@H](COc2ccc(S(C)(=O)=O)cc2)CN1CCc1cccc(Cl)c1 [Compound 145]")
1130

A: C[C@@H]1C[C@H](COc2ccc(S(C)(=O)=O)nc2)CN1CCc1cccc(C#N)c1 [Compound 64]
B: C[C@@H]1C[C@H](COc2ccc(S(=O)(=O)CCCS(C)(=O)=O)cc2)CN1C1CCc2c(C#N)cccc2C1 (single isomer, unassigned) [Compound 42]
C: CS(=O)(=O)C1(c2ccc(OC[C@@H]3CN(CCc4cc(Cl)cc(C#N)c4)CCN3)cc2)CC1 [Compound 110]
D: CC(=O)N(C)CCS(=O)(=O)c1ccc(OC[C@@H]2CN(CCc3cc(Cl)cc(C#N)c3)C[C@H]2C)cc1 [Compound 75]
Order the entries by their reported AC50, beginning at the minimum. I would appreciate it if you listed the labels in the requested order.
C, A, D, B

====

- Target entity: APOL1 G2 (Homo sapiens, UniProt O14791, DEL388-389)
- Construct: expressed in transfected cells; host or cells: HEK293/T-REx APOL1 G2 clone #2, doxycycline-inducible
- Sequence (O14791 with tags, fused parts or gaps DEL388-389): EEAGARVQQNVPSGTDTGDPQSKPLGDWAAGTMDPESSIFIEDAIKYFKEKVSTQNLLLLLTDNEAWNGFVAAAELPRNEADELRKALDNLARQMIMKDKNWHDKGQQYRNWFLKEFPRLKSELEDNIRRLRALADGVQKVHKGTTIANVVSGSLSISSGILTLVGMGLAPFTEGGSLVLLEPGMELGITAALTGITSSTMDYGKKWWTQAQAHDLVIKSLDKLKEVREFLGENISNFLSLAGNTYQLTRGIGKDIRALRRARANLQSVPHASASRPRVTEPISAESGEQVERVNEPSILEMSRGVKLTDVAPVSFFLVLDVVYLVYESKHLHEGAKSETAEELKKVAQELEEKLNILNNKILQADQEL
- Procedure text: APOL1 G2 FLIPR calcium influx assay (HEK T-REx/GCaMP6f/APOL1 G2 K6.3 cells)
- Format: cell-based
- Test conditions: HEK293 clone expressing GCaMP6f, doxycycline-induced APOL1 G2; prevention of calcium influx; geometric mean of at least 2 assay runs
Readout kind: AC50 (nM)

Recorded AC50, per entry:
>>> reported_measurement("CC(c1ccc(OC[C@@H]2CN(CCc3cccc(Cl)c3)CCN2)cc1)S(C)(=O)=O (some centres unmarked) [Compound 140]")
379
>>> reported_measurement("C[C@@H]1CN(CCc2cc(Cl)cc(C#N)c2)C[C@H]1COc1ccc(S(C)(=O)=O)nc1")
221
>>> reported_measurement("C[C@@H]1CN(CCc2cc(Cl)cc(C#N)c2)C[C@H]1COc1cc(F)c(S(C)(=O)=O)c(F)c1")
370
>>> reported_measurement("CS(=O)(=O)c1ccc(OC[C@H]2CN(CCc3cccc(Cl)c3)C[C@@H]2CO)cc1")
1560
>>> reported_measurement("C[C@@H]1CN(CCc2cc(Cl)cc(C#N)c2)C[C@H]1COc1ccc(S(=O)(=O)C2(C)COC2)cc1")
290

a: C[C@@H]1C[C@H](COc2ccc(S(C)(=O)=O)nn2)CN1CCc1cccc(C#N)c1
b: CC(C(O)c1cc(Cl)cc(C#N)c1)N1C[C@@H](COc2ccc(S(C)(=O)=O)cc2)[C@H](C)C1 (single isomer, unassigned) [Compound 101]
c: CS(=O)(=O)c1ccc(OC[C@@H]2CCCN(C3CCc4ccc(Cl)cc4C3)C2)cc1 (single isomer, unassigned) [Compound 133]
d: CN1CC(S(=O)(=O)c2ccc(OC[C@@H]3CN(CCc4cccc(Cl)c4)CCN3)cc2)C1
e: C[C@@H]1C[C@H](COc2cnc(S(C)(=O)=O)cn2)CN1CCc1cccc(C#N)c1
Parameters: sort_field (AC50), sort_dir (desc). # output: labels, in the requested order
c, b, d, a, e
(c: 1150 nM, b: 765 nM, d: 337 nM, a: 210 nM, e: 39.7 nM)

P: CC(=O)N(C)CCS(=O)(=O)c1ccc(OC[C@H]2C[C@@H](C)N(CCc3cc(Cl)cc(C#N)c3)C2)cc1
Q: C[C@@H]1C[C@H](COc2ccc(S(C)(=O)=O)cc2)CN1C1CCc2c(C#N)cc(Cl)cc2C1 (single isomer, unassigned) [Compound 9]
Please compare: P and Q . Report which one has the smaller AC50 value. Response format: the label of the selected entry.
P
(P: 621 nM, Q: 1280 nM)

====

- Target entity: APOL1 G2 (Homo sapiens, UniProt O14791, DEL388-389)
- Construct: expressed in transfected cells; host or cells: HEK293/T-REx APOL1 G2 clone #2, doxycycline-inducible
- Sequence (O14791 with tags, fused parts or gaps DEL388-389): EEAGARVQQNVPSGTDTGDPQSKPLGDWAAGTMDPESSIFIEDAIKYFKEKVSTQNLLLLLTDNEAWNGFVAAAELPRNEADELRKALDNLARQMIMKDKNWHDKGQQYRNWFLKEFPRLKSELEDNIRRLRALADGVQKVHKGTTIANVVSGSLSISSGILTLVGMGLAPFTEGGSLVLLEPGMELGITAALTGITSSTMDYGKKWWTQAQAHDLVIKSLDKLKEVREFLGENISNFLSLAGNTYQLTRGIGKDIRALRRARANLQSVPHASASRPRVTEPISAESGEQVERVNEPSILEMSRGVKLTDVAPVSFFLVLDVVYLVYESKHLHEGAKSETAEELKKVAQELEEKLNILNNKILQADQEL
- Procedure text: APOL1 G2 FLIPR calcium influx assay (HEK T-REx/GCaMP6f/APOL1 G2 K6.3 cells)
- Type: cell-based
- Test conditions: HEK293 clone expressing GCaMP6f, doxycycline-induced APOL1 G2; prevention of calcium influx; geometric mean of at least 2 assay runs
- Excerpt: A HEK293 clonal cell line was generated to stably express GCaMP6f, a genetically encoded calcium indicator, and inducibly express APOL1 G2 (HEK T-REx/GCaMP6f/APOL1 G2 K6.3). […]
Readout kind: AC50 (nM)

Example cases with answers are listed next.
>>> reported_measurement("Cc1cc(OC[C@H]2C[C@@H](C)N(CC(O)c3cccc(C#N)c3)C2)cnc1S(C)(=O)=O (single isomer, unassigned) [Compound 96]")
188
>>> reported_measurement("C[C@@H]1C[C@H](COc2ccc(S(=O)(=O)CCCS(C)(=O)=O)cc2)CN1C1CCc2ccc(Cl)cc2C1 (single isomer, unassigned) [Compound 54]")
857
>>> reported_measurement("C[C@@H]1C[C@H](COc2ccc(S(=O)(=O)CCO)cc2)CN1C1CCc2c(C#N)cc(Cl)cc2C1 (single isomer, unassigned) [Compound 57]")
802

a: CC(Cc1cc(Cl)cc(C#N)c1)N1C[C@@H](COc2ccc(S(C)(=O)=O)cc2)C[C@H]1C (single isomer, unassigned) [Compound 11]
b: C[C@@H]1CN(CC(CO)c2cc(Cl)cc(C#N)c2)C[C@H]1COc1ccc(S(C)(=O)=O)cc1 (single isomer, unassigned) [Compound 127]
# query: argmin of AC50 over a and b Write down the label attached to your selection.
a

====

- Target entity: APOL1 G2 (Homo sapiens, UniProt O14791, DEL388-389)
- Procedure text: APOL1 G2 HEK293 rescue of cell death caused by overexpression of APOL1 (CellTiter-Glo)
- Test conditions: HEK293/T-REx APOL1 G2 clone #2, doxycycline induction, 17 hours, CellTiter-Glo luminescence; reversal of cell death; geometric mean of at least 2 assay runs
- Description: A HEK293 clonal cell line overexpressing APOL1 G2 (HEK293/T-REx APOL1 G2/clone #2) was maintained in 1×DMEM-GlutaMax (Gibco, 10569-010) media with 10% tetracycline-free FBS (Takara Bio USA, 631101), 5 μg/mL Blasticidin (Gibco, A1113903), and 100 μg/mL Zeocin (Invitrogen, R25001) in T75 flasks. […] The suspension was gently mixed, and cells were counted using a Countess Cell Counting Chamber (Invitrogen). […] Luminescence was measured on an Envision plate reader. […]
Readout kind: EC50 (µM)
Quick note: give the figure in µM, leave out the unit.

Field: example entries. Status: answers known.
>>> reported_measurement("C[C@@H]1CN(CCc2cccc(C#N)c2)C[C@H]1COc1cnc(S(C)(=O)=O)cn1 [Compound 20]")
1.12
>>> reported_measurement("C[C@@H]1C[C@H](COc2ccc(S(=O)(=O)CCO)cc2)CN1C1CCc2ccc(Cl)cc2C1 (single isomer, unassigned) [Compound 63]")
0.0248
>>> reported_measurement("C[C@@H]1CN(C(CO)Cc2cccc(Cl)c2)C[C@H]1COc1ccc(S(C)(=O)=O)cc1 (stereo partly shown) [Compound 115]")
1.83

Proceeding to the next compound to report its EC50.
Please give the measured EC50 for this compound: C[C@@H]1C[C@H](COc2cnc(S(C)(=O)=O)cn2)CN1CCc1cccc(C#N)c1 [Compound 1]
0.0537
